Target: cIAP1-BIR2 (Homo sapiens (Human))
Assay: BIR binding assay (FRET competition), cIAP1 BIR2
pIC50: −log10 of the molar value.
measured_quantity: pIC50

Recorded pIC50 of `C[C@@H]1CN(CC(=O)N2CC(C)(C)c3[nH]c(=O)c(Cc4ccc(F)cc4)cc32)[C@@H](CN2CCC(CN(C)C(=O)Cc3ccc(CC(=O)N(C)CC4CCN(C[C@H]5CN[C@H](C)CN5CC(=O)N5CC(C)(C)c6[nH]c(=O)c(Cc7ccc(F)cc7)cc65)CC4)cc3)CC2)CN1` , please.
5.00 to 5.50

Recorded pIC50 of `C[C@@H]1CN(CC(=O)N2CC(C)(C)c3[nH]c(=O)c(Cc4ccc(F)cc4)cc32)[C@@H](CN2CCO[C@H](COc3cccc(OC[C@@H]4CN(C[C@H]5CN[C@H](C)CN5CC(=O)N5CC(C)(C)c6[nH]c(=O)c(Cc7ccc(F)cc7)cc65)CCO4)c3)C2)CN1` , please.
5.50 to 6.00

Recorded pIC50 of `C[C@@H]1CN(CC(=O)N2CC(C)(C)c3ncc(Nc4ccc(F)cc4)cc32)[C@@H](CN2CCO[C@H](COc3cccc(OC[C@@H]4CN(C[C@H]5CN[C@H](C)CN5CC(=O)N5CC(C)(C)c6ncc(Nc7ccc(F)cc7)cc65)CCO4)c3)C2)CN1` , please.
4.29 to 5.00

Recorded pIC50 of `Cc1ccc(Cc2cc3c([nH]c2=O)C(C)(C)CN3C(=O)CN2C[C@@H](C)NC[C@@H]2CN2CCO[C@H](C(=O)NCc3ccc(CNC(=O)[C@@H]4CN(C[C@H]5CN[C@H](C)CN5CC(=O)N5CC(C)(C)c6[nH]c(=O)c(Cc7ccc(C)cc7)cc65)CCO4)cc3)C2)cc1` , please.
6.00 to 7.65

----------
Provide the recorded pIC50 for the entries that follow.
Target: XIAP-BIR3 (Homo sapiens (Human))
Sequence (P98170 241-356): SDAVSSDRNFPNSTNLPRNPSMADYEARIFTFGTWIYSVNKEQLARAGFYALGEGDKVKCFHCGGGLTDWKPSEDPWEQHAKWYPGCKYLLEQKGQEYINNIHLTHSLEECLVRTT
Test: BIR binding assay (FRET competition), XIAP BIR3
Procedure: The BIR domain binding assays are FRET based competition assays that utilize His-tagged versions of each of the BIR2 and BIR3 domains from cIAP1, cIAP2, and XIAP (each domain assayed separately) each at a custom optimal concentration and a probe, 200 nM SMAC/DIABLO peptide […] labelled with AlexaFluor647 (part #crb 1110326h, Discovery Peptides). The assay is conducted in 50 mM HEPES, […], 1 mM CHAPS, 5% Glycerol, 1 mM DTT, in dI water with a final pH of 7.4 and final volume of 20 uL. […]
pIC50: −log10 of the molar value.

Recorded pIC50 of C[C@@H]1CN(CC(=O)N2CC(C)(C)c3ncc(Cc4ccc(F)cc4)cc32)[C@@H](CN2CCO[C@H](COc3cccc(OC[C@@H]4CN(C[C@H]5CN[C@H](C)CN5CC(=O)N5CC(C)(C)c6ncc(Cc7ccc(F)cc7)cc65)CCO4)c3)C2)CN1 [Compound 145] , please.
6.30 to 7.50

Recorded pIC50 of C[C@@H]1CN(CC(=O)N2CC(C)(C)c3[nH]c(=O)c(Cc4ccc(F)cc4)cc32)[C@@H](CN2CCO[C@H](COc3ccc(C(=O)c4ccc(OC[C@@H]5CN(C[C@H]6CN[C@H](C)CN6CC(=O)N6CC(C)(C)c7[nH]c(=O)c(Cc8ccc(F)cc8)cc76)CCO5)cc4)cc3)C2)CN1 [Example 54] , please.
7.50 to 7.80

----------
Provide the recorded IC50 for the entries that follow.
Target: cIAP1-BIR2 (Homo sapiens (Human), UniProt Q13490)
Sequence (Q13490 173-257): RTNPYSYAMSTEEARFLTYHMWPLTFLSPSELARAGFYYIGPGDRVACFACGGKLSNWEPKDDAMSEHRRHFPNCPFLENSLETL
Assay: BIR binding assay (FRET competition), cIAP1 BIR2

Recorded IC50 of C[C@@H]1CN(CC(=O)N2CC(C)(C)c3[nH]c(=O)c(Cc4ccc(F)cc4)cc32)[C@@H](CN2CCO[C@H](COc3ccc(Cl)c(OC[C@@H]4CN(C[C@H]5CN[C@H](C)CN5CC(=O)N5CC(C)(C)c6[nH]c(=O)c(Cc7ccc(F)cc7)cc65)CCO4)c3)C2)CN1 [Example 89] , please.
3.16 to 10 µM

Recorded IC50 of C[C@@H]1CN(CC(=O)N2CC(C)(C)c3[nH]c(=O)c(Cc4ccc(F)cc4)cc32)[C@@H](CN2CCC[C@H](NC(=O)Cc3ccc(CC(=O)N[C@H]4CCCN(C[C@H]5CN[C@H](C)CN5CC(=O)N5CC(C)(C)c6[nH]c(=O)c(Cc7ccc(F)cc7)cc65)C4)cc3)C2)CN1 [Example 42] , please.
3.16 to 10 µM

Recorded IC50 of C[C@@H]1CN(CC(=O)N2CC(C)(C)c3[nH]c(=O)c(Cc4ccc(F)cc4)cc32)[C@@H](CN2CCC[C@@H](NC(=O)Cc3ccc(CC(=O)N[C@@H]4CCCN(C[C@H]5CN[C@H](C)CN5CC(=O)N5CC(C)(C)c6[nH]c(=O)c(Cc7ccc(F)cc7)cc65)C4)cc3)C2)CN1 [Example 48] , please.
10 to 51.3 µM

Recorded IC50 of C[C@@H]1CN(CC(=O)N2CC(C)(C)c3[nH]c(=O)c(Cc4ccc(F)cc4)cc32)[C@@H](CN2CCO[C@H](C(=O)NC3CCN(C(=O)[C@@H]4CN(C[C@H]5CN[C@H](C)CN5CC(=O)N5CC(C)(C)c6[nH]c(=O)c(Cc7ccc(F)cc7)cc65)CCO4)CC3)C2)CN1 [Example 129] , please.
0.0224 to 1 µM

----------
Biological target: cIAP1-BIR2 (Homo sapiens (Human))
Experiment: BIR binding assay (FRET competition), cIAP1 BIR2
Provide the recorded IC50 for the entries that follow.

Item `C[C@@H]1CN(CC(=O)N2CC(C)(C)c3[nH]c(=O)c(Cc4ccc(F)cc4)cc32)[C@@H](CN2CCO[C@H](C(=O)NCCN3CCN(C(=O)[C@@H]4CN(C[C@H]5CN[C@H](C)CN5CC(=O)N5CC(C)(C)c6[nH]c(=O)c(Cc7ccc(F)cc7)cc65)CCO4)CC3)C2)CN1` with cIAP1-BIR2 (Homo sapiens (Human)) - IC50?
1 to 3.16 µM

Item `C[C@@H]1CN(CC(=O)N2CC(C)(C)c3[nH]c(=O)c(Cc4ccc(F)cc4)cc32)[C@@H](CN2CCO[C@H](C(=O)NCCCCNC(=O)[C@@H]3CN(C[C@H]4CN[C@H](C)CN4CC(=O)N4CC(C)(C)c5[nH]c(=O)c(Cc6ccc(F)cc6)cc54)CCO3)C2)CN1` with cIAP1-BIR2 (Homo sapiens (Human)) - IC50?
1 to 3.16 µM

Item `Cc1ccc(Cc2cnc3c(c2)N(C(=O)CN2C[C@@H](C)NC[C@@H]2CN2CCO[C@H](COc4cccc(OC[C@@H]5CN(C[C@H]6CN[C@H](C)CN6CC(=O)N6CC(C)(C)c7ncc(Cc8ccc(C)cc8)cc76)CCO5)c4)C2)CC3(C)C)cc1` with cIAP1-BIR2 (Homo sapiens (Human)) - IC50?
10 to 51.3 µM

Item `C[C@@H]1CN(CC(=O)N2CC(C)(C)c3[nH]c(=O)c(Cc4ccc(F)cc4)cc32)[C@@H](CN2CCO[C@H](C(=O)NCCCNC(=O)[C@@H]3CN(C[C@H]4CN[C@H](C)CN4CC(=O)N4CC(C)(C)c5[nH]c(=O)c(Cc6ccc(F)cc6)cc54)CCO3)C2)CN1` with cIAP1-BIR2 (Homo sapiens (Human)) - IC50?
1 to 3.16 µM

----------
Target: cIAP1-BIR3 (Homo sapiens (Human), UniProt Q13490)
Sequence (Q13490 253-363): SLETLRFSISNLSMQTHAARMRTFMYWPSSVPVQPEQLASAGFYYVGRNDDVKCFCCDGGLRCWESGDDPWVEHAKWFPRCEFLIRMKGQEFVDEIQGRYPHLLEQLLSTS
Experiment: BIR binding assay (FRET competition), cIAP1 BIR3
measured_quantity: IC50

Recorded IC50 of `C[C@@H]1CN(CC(=O)N2CC(C)(C)c3[nH]c(=O)c(Cc4ccc(F)cc4)cc32)[C@@H](CN2CCO[C@H](COc3cccc(OC[C@@H]4CN(C[C@H]5CN[C@H](C)CN5CC(=O)N5CC(C)(C)c6[nH]c(=O)c(Cc7ccc(F)cc7)cc65)CCO4)c3)C2)CN1` , please.
7.94 to 15.8 nM

Recorded IC50 of `C[C@@H]1CN(CC(=O)N2CC(C)(C)c3[nH]c(=O)c(Cc4ccc(F)cc4)cc32)[C@@H](CN2CCO[C@H](C(=O)NCc3cccc(CNC(=O)[C@@H]4CN(C[C@H]5CN[C@H](C)CN5CC(=O)N5CC(C)(C)c6[nH]c(=O)c(Cc7ccc(F)cc7)cc65)CCO4)c3)C2)CN1` , please.
7.94 to 15.8 nM

Recorded IC50 of `C[C@@H]1CN(CC(=O)N2CC(C)(C)c3[nH]c(=O)c(Cc4ccc(F)cc4)cc32)[C@@H](CN2CCN(C(=O)c3ccc(C(=O)N4CCN(C[C@H]5CN[C@H](C)CN5CC(=O)N5CC(C)(C)c6[nH]c(=O)c(Cc7ccc(F)cc7)cc65)[C@H](C)C4)cc3)C[C@H]2C)CN1` , please.
1.38 to 7.94 nM

Recorded IC50 of `C[C@@H]1CN(CC(=O)N2CC(C)(C)c3[nH]c(=O)c(Cc4ccc(F)cc4)cc32)[C@@H](CN2CCO[C@H](COc3ccccc3Oc3ccccc3OC[C@@H]3CN(C[C@H]4CN[C@H](C)CN4CC(=O)N4CC(C)(C)c5[nH]c(=O)c(Cc6ccc(F)cc6)cc54)CCO3)C2)CN1` , please.
15.8 to 31.6 nM

Recorded IC50 of `C[C@@H]1CN(CC(=O)N2CC(C)(C)c3[nH]c(=O)c(Cc4ccc(F)cc4)cc32)[C@@H](CN2CCO[C@H](C(=O)NCCN3CCN(C(=O)[C@@H]4CN(C[C@H]5CN[C@H](C)CN5CC(=O)N5CC(C)(C)c6[nH]c(=O)c(Cc7ccc(F)cc7)cc65)CCO4)CC3)C2)CN1` , please.
15.8 to 31.6 nM

Recorded IC50 of `C[C@@H]1CN(CC(=O)N2CC(C)(C)c3[nH]c(=O)c(Cc4ccc(F)cc4)cc32)[C@@H](CN2CCN(C(=O)COc3cccc(OCC(=O)N4CCN(C[C@H]5CN[C@H](C)CN5CC(=O)N5CC(C)(C)c6[nH]c(=O)c(Cc7ccc(F)cc7)cc65)[C@H](C)C4)c3)C[C@H]2C)CN1` , please.
15.8 to 31.6 nM

Recorded IC50 of `C[C@@H]1CN(CC(=O)N2CC(C)(C)c3[nH]c(=O)c(Cc4ccc(F)cc4)cc32)[C@@H](CN2CCO[C@H](C(=O)NC3CCN(C(=O)[C@@H]4CN(C[C@H]5CN[C@H](C)CN5CC(=O)N5CC(C)(C)c6[nH]c(=O)c(Cc7ccc(F)cc7)cc65)CCO4)CC3)C2)CN1` , please.
7.94 to 15.8 nM
